All figures here come from patent US12617779B2.

Experiment: Evaluation of conversion rate to active form in buffer solution (Experimental Example 1)
Type: physicochemical
Details: pH5.5, 3 hr, 37° C., 25 umol/L in buffer solution
Counter-ions that a name gives are not always drawn.
Decide using Residual rate: a value greater than or equal to 90% is met, a smaller one is not met.

compound	classification
CCCN(C[C@@H]1CCCCN1)C(=O)Oc1cc(O)c2c(=O)cc(-c3ccccc3Cl)oc2c1[C@H]1CCN(C)C[C@H]1O	met
CN1CC[C@H](c2c(OC(=O)N(CCCC(F)(F)F)CC3CCCCN3)cc(O)c3c(=O)cc(-c4ccccc4Cl)oc23)[C@H](O)C1 (stereo partly shown)	not met
COCCN(CC1CCCCN1)C(=O)Oc1cc(O)c2c(=O)cc(-c3ccccc3Cl)oc2c1[C@H]1CCN(C)C[C@H]1O (stereo partly shown)	not met

Q) I'd appreciate it if you could say whether CCNC(=O)Oc1cc(O)c2c(=O)cc(-c3ccccc3Cl)oc2c1[C@H]1CCN(C)C[C@H]1O [Comparative Example 1, reference compound] has Residual rate at least equal to 90%.
A) not met

Q) For this compound, is measured Residual rate 90% or higher? CCN(CC1CCCCN1)C(=O)Oc1cc(O)c2c(=O)cc(-c3ccccc3Cl)oc2c1[C@H]1CCN(C)C[C@H]1O (stereo partly shown) [Example 7, dihydrochloride]
A) met

Q) For this compound, is measured Residual rate 90% or higher? CCN(C[C@@H]1CCCCN1)C(=O)Oc1cc(O)c2c(=O)cc(-c3ccccc3Cl)oc2c1[C@H]1CCN(C)C[C@H]1O [Example 1, ditrifluoroacetate]
A) met

Q) Hi, just wondering whether CCN(CCC1CCCCN1)C(=O)Oc1cc(O)c2c(=O)cc(-c3ccccc3Cl)oc2c1[C@H]1CCN(C)C[C@H]1O (stereo partly shown) shows Residual rate of 90% or higher.
A) not met

###

Assay: Stability evaluation of solution formulation (Experimental Example 2)
Assay type: physicochemical
Conditions: solution formulation, pH4.0, 1 week
# maps each entry to its Production rate of Alvocidib
Expressed in %, but write only the number.

compound	Production rate of Alvocidib, %
CNCCN(C)C(=O)Oc1cc(O)c2c(=O)cc(-c3ccccc3Cl)oc2c1[C@H]1CCN(C)C[C@H]1O [Comparative Example 14, reference compound]	12.8
CCCN(C[C@@H]1CCCCN1)C(=O)Oc1cc(O)c2c(=O)cc(-c3ccccc3Cl)oc2c1[C@H]1CCN(C)C[C@H]1O	0.3

Q) Bench note: what Production rate of Alvocidib did CN1CC[C@H](c2c(OC(=O)N(C)CCN)cc(O)c3c(=O)cc(-c4ccccc4Cl)oc23)[C@H](O)C1 [Comparative Example 13, reference compound] show?
A) 1.2

###

Assay: Evaluation of conversion rate to active form in buffer solution (Experimental Example 1)
Type: physicochemical
Details: pH7.0, 1 hr
value.kind: Residual rate

molecule	value.kind	reading
CCNC(=O)O[C@@H]1CN(C)CC[C@@H]1c1c(O)cc(O)c2c(=O)cc(-c3ccccc3Cl)oc12 [Comparative Example 4, reference compound]	Residual rate	97.6%

Q) // lookup Residual rate for CN1CC[C@H](c2c(OC(=O)N(C)CCN)cc(O)c3c(=O)cc(-c4ccccc4Cl)oc23)[C@H](O)C1 [Comparative Example 13, reference compound]
A) 1.3%

Q) Value lookup for Residual rate; key = CNC(=O)O[C@@H]1CN(C)CC[C@@H]1c1c(O)cc(O)c2c(=O)cc(-c3ccccc3Cl)oc12 [Comparative Example 5, reference compound]
A) 93.8%

Q) Using the record for CNCCN(C)C(=O)Oc1cc(O)c2c(=O)cc(-c3ccccc3Cl)oc2c1[C@H]1CCN(C)C[C@H]1O [Comparative Example 14, reference compound] , report its Residual rate.
A) 0.0%

Q) Which Residual rate value is on record for CCOC(=O)O[C@@H]1CN(C)CC[C@@H]1c1c(O)cc(O)c2c(=O)cc(-c3ccccc3Cl)oc12 [Comparative Example 3, reference compound] ?
A) 90.9%

Q) Bench note: what Residual rate did C[C@H](N)C(=O)O[C@@H]1CN(C)CC[C@@H]1c1c(O)cc(O)c2c(=O)cc(-c3ccccc3Cl)oc12 [Comparative Example 7, reference compound] show?
A) 35.5%

Q) Request the reported Residual rate associated with CN1CC[C@H](c2c(O)cc(O)c3c(=O)cc(-c4ccccc4Cl)oc23)[C@H](OC(=O)[C@@H](N)CO)C1 [Comparative Example 9, reference compound]
A) 68.1%
